# System: CCRIS mutagenicity, Ames/micronucleus/aberration tests
# TEST_PROTOCOL: CCRIS mutagenicity studies
# TEST_CONTEXT: Test System: AMES SALMONELLA TYPHIMURIUM; Strain/Indicator: TA1537; Metabolic Activation: NONE; Method: PREINCUBATION
Activity calls are given as the source filed them. The rule behind the calls is not given here.
// classify into active, inactive

Sample answers from the record:
MOLECULE | GROUP
Cc1cccc(OP(=O)(Oc2cccc(C)c2)Oc2cccc(C)c2)c1 | inactive
Oc1ccc(Cl)c(Cl)c1Cl | inactive
Oc1cc(Cl)cc(Cl)c1 | inactive
O=C1c2c(O)ccc([N+](=O)[O-])c2C(=O)c2c([N+](=O)[O-])ccc(O)c21 | active
Nc1ccc(N)c2ccccc12 | inactive
COc1ccc(N=[N+]([O-])c2ccc(OC)cc2)cc1 | inactive

With those in mind, consider the next molecule.
Could you kindly confirm the outcome this assay logged for `Nc1ccc(Cl)cc1` ?
inactive

====

# Tested on: CCRIS mutagenicity, Ames/micronucleus/aberration tests
# TEST_PROTOCOL: CCRIS mutagenicity studies
# TEST_CONTEXT: End Point: IN VITRO CHROMOSOMAL ABERRATIONS; Test System: CHINESE HAMSTER LUNG CELLS (CHL); Metabolic Activation: RAT, LIVER, S-9, KC-400
Activity calls are given as the source filed them. How the calls were made is not given here.
Mark one answer only. Choices: Yes (active), No (inactive)

Please review the following examples before continuing.
MOLECULE_SMILES | ASSAYED_SYSTEM | GROUP
CN(C)c1ccc(N)cc1 | CCRIS mutagenicity, Ames/micronucleus/aberration tests | No
CN(C)c1ccc(N(C)C)cc1 | CCRIS mutagenicity, Ames/micronucleus/aberration tests | Yes
Oc1cc(Cl)c(Cl)c(Cl)c1Cl | CCRIS mutagenicity, Ames/micronucleus/aberration tests | Yes
Nc1cccc(N)c1 | CCRIS mutagenicity, Ames/micronucleus/aberration tests | Yes
Cc1c(N)cccc1N | CCRIS mutagenicity, Ames/micronucleus/aberration tests | Yes

Moving on to the next compound.
Recorded test call requested for `Oc1ccc(Cl)c(Cl)c1Cl`
No

====

# System: CCRIS mutagenicity, Ames/micronucleus/aberration tests
# TEST_PROTOCOL: CCRIS mutagenicity studies
# TEST_CONTEXT: Test System: AMES SALMONELLA TYPHIMURIUM; Strain/Indicator: TA1538; Metabolic Activation: HAMSTER, LIVER, S-9, AROCLOR 1254; Method: STANDARD PLATE
The source made the active and inactive calls. How the calls were made is not given here.
Classes to choose from: active, inactive

Here's what some known entries look like.
COMPOUND | GROUP
Cc1cc(N)sn1 | active
CC(C)Cc1ccc(C(C)C(=O)O)cc1 (stereo not drawn) | inactive
Nc1ncnc2c1ncn2[C@H]1CC[C@@H](CO)O1 | inactive
COc1cc(/C=C/C(=O)CC(=O)/C=C/c2ccc(O)c(OC)c2)ccc1O | inactive
CCCCC(CC)COC(=O)c1ccc(N(C)N=O)cc1 (stereo not drawn) | inactive

What is the recorded call for this compound in the test? `Oc1c(Br)cc(Br)cc1Br`
inactive

Outcome? `COc1ccc(N)cc1`
inactive

Look up the recorded call for `Cc1c(C(=O)O)c(O)cc2c1C(=O)c1c(O)c([C@@H]3O[C@H](CO)[C@@H](O)[C@H](O)[C@H]3O)c(O)c(O)c1C2=O` in this test.
inactive

====

# System: CCRIS mutagenicity, Ames/micronucleus/aberration tests
# TEST_PROTOCOL: CCRIS mutagenicity studies
# TEST_CONTEXT: Test System: AMES SALMONELLA TYPHIMURIUM; Strain/Indicator: TA1538; Metabolic Activation: NONE; Method: STANDARD PLATE
The source made the active and inactive calls. The rule behind the calls is not given here.
Pick one and only one: class 1 for active, class 0 for inactive

COMPOUND | GROUP
CS(=O)CCC(=O)N1[C@@H](c2ccccc2O)SC[C@H]1C(=O)O (some centres not stated) | class 0

# evaluate next
// outcome(item) with item = `CC(C)(C)S(=O)(=O)C[C@@H](Cc1ccccc1)C(=O)N[C@@H](Cc1cnc[nH]1)C(=O)N[C@@H](CC1CCCCC1)[C@@H](O)[C@@H](O)C1CC1`
class 0

====

# Test system: CCRIS mutagenicity, Ames/micronucleus/aberration tests
# TEST_PROTOCOL: CCRIS mutagenicity studies
# TEST_CONTEXT: Test System: AMES SALMONELLA TYPHIMURIUM; Strain/Indicator: TA98; Metabolic Activation: HAMSTER, LIVER, S-9, AROCLOR 1254 (10%); Method: PREINCUBATION
The source made the active and inactive calls. No rule for the calls is given here.
The reply should name one outcome from active, inactive

Some entries whose results are on file:
COMPOUND | GROUP
CCc1cc(C(N)=S)ccn1 | inactive
CC(O)CN(CC(C)O)CC(C)O (centres undefined) | inactive
NCCNCCO | inactive
COc1c(C(C)(C)C)cc([N+](=O)[O-])c(C)c1[N+](=O)[O-] | inactive
Cc1ccc(C)c(N)c1 | active

# fetch the recorded call for `CCCCOCCOCCSC#N` here
inactive

So what was the verdict on `Nc1ccccc1Cl` in this test?
inactive

Outcome logged for CCCCC(CC)COCC1CO1 (centres undefined) in this assay:
inactive

How did this test come out for `S=[Se]` ?
inactive

Name the outcome recorded for CC(CCl)OP(=O)(OC(C)CCl)OC(C)CCl (centres undefined) in the assay.
inactive

====

# System: CCRIS mutagenicity, Ames/micronucleus/aberration tests
# TEST_PROTOCOL: CCRIS mutagenicity studies
# TEST_CONTEXT: Test System: AMES SALMONELLA TYPHIMURIUM; Strain/Indicator: TA100; Metabolic Activation: RAT, LIVER, S-9, PCB; Method: PREINCUBATION
The source made the active and inactive calls. The rule behind the calls is not given here.
Output constraint: value belongs to Y (active), N (inactive)

Example entries and their recorded answers appear below.
COMPOUND | GROUP
Clc1nncc2cnccc12 | N
Cc1ccc(NN=NCc2ccccc2)cc1 | Y
CC(C)N=C(NC(C)C)OCc1ccc([N+](=O)[O-])cc1 | Y
COc1ccc2c(c1O)C(=O)c1ccccc1C2=O | N
COc1c(C=O)c(O)cc2c1C(=O)c1ccccc1C2=O | N
[N-]=[N+]=N[C@H](c1ccccc1)[C@@H](O)CO | Y
NCCNCCNCCN | Y
NCCCNCCCN | N
COC(=O)c1ccccc1O | N
NNc1nncc2cnccc12 | Y

Identify the outcome logged in this assay for the compound shown: `O=[N+]([O-])c1ccc(CNc2ncnc3c2ncn3[C@@H]2O[C@H](CO)[C@@H](O)[C@H]2O)cc1`
N

Could you check what this test reported for `Nc1ccc(Oc2ccc(N)c(N)c2)cc1` ?
Y

Please indicate how the test categorized `Nc1ncnc2c1nc(-c1ccc([N+](=O)[O-])cc1)n2-c1ccc([N+](=O)[O-])cc1` .
Y

Could you please tell me the result logged for CC1(C)CC(N)CC(C)(CN)C1 (stereo not drawn) in this assay?
N

What was the test verdict on `OCCN1CCNCC1` ?
N

Assay result, entry `Cc1cc(N=Nc2ccccc2C)ccc1N` — outcome?
Y

Please let me know the test result on file for `Cc1ccccc1NO` .
Y

Call for entry `Nc1cccc(N)c1` :
Y

Lab log entry: `Cc1ccc(N)cc1N` — outcome as called in the assay?
Y

I would be grateful if you could indicate the recorded call for `CN1CCNCC1` .
N

Which outcome was entered for the compound `C[C@H](CCN=[N+]=[N-])c1ccccc1` in this test?
Y

What did this assay record as the result for `ClC[C@@H]1CO1` ?
Y

====

# Tested on: CCRIS mutagenicity, Ames/micronucleus/aberration tests
# TEST_PROTOCOL: CCRIS mutagenicity studies
# TEST_CONTEXT: Test System: E.COLI; Strain/Indicator: WP2UVRA; Metabolic Activation: RAT LIVER S-9, PHENOBARBITAL AND BETA-NAPHTHOFLAVONE; Method: PREINCUBATION
Activity calls are given as the source filed them. How the calls were made is not given here.
Pick from yes (active), no (inactive) when you respond.

COMPOUND | ASSAYED_SYSTEM | GROUP
Clc1ccc(C(Cl)(Cl)Cl)cc1 | CCRIS mutagenicity, Ames/micronucleus/aberration tests | yes

I would be grateful if you could indicate the recorded call for `Nc1cccc2cccc(S(=O)(=O)O)c12` .
no

====

# Tested on: CCRIS mutagenicity, Ames/micronucleus/aberration tests
# TEST_PROTOCOL: CCRIS mutagenicity studies
# TEST_CONTEXT: Test System: AMES SALMONELLA TYPHIMURIUM; Strain/Indicator: TA102; Metabolic Activation: NONE; Method: PREINCUBATION
Calls of active or inactive are those of the source. The rule behind the calls is not given here.
Write down the outcome that applies. Available outcomes: Y = active, N = inactive

MOLECULE | GROUP
CC1=CC(=O)c2c(O)cccc2C1=O | N
CN(C)N | N
COc1ccc(N)cc1 | N
COc1ccccc1O | N
Nc1ccc2ccccc2c1N=Nc1ccccc1 | N

Please indicate how the test categorized `CCN(CC)N=O` .
N

What classification did `O=C1NCCN1c1ncc([N+](=O)[O-])s1` end up with in this test?
Y

Dear all, I need the recorded test outcome for `CCOC(=O)CC(C)C` , thank you.
N

Given `Cc1cncc(C)n1` , state the outcome it received in this test.
N
